pIC50 reference
- assay-system: human orexin-2 receptor (Homo sapiens (Human), UniProt O43614)
- Sequence (O43614 whole entry): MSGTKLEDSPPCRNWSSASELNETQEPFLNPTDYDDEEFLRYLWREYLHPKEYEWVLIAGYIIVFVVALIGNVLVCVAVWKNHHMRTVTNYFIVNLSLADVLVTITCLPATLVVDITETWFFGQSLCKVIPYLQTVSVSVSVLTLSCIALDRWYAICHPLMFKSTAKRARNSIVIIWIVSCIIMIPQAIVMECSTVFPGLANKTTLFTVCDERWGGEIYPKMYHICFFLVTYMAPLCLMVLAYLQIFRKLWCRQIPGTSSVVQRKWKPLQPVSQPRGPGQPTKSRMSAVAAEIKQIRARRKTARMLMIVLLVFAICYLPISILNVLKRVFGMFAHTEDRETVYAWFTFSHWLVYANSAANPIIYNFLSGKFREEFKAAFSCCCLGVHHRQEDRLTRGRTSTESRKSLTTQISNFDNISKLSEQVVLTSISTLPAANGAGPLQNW
- protocol: In vitro assay: intracellular calcium measurements (FLIPR), antagonistic activity
- settings: CHO cells expressing human orexin-2 receptor, orexin-A agonist, geometric mean, read-out: IC50 Ox2
The read-out pIC50 is expressed as -log10 of concentration in moles per litre.

A selection of reference data follows.
{"compound": "Cc1nc(C(=O)N2CCCC2c2nc3cc(F)c(Br)cc3[nH]2)c(-c2ccccc2)s1 (centres unmarked) [Ex. 1.136]", "pIC50": 6.56}
{"compound": "Cc1c(Cl)ccc2[nH]c([C@]3(C)CCCN3C(=O)c3nc(-c4cc(F)ccc4F)sc3-c3ccc(F)cc3)nc12 [Ex. 5.261]", "pIC50": 6.33}
{"compound": "Cc1nc(C(=O)N2CC[C@H](C)[C@H]2c2nc3cc(Cl)cc(C)c3[nH]2)c(-c2cccc(Cl)c2)s1 [Ex. 4.28]", "pIC50": 6.31}
{"compound": "C=C1C[C@@H](c2nc3cc(C)c(C)cc3[nH]2)N(C(=O)c2cc(F)ccc2-n2nccn2)C1 [Ex. 6.192]", "pIC50": 8.15}

Let us move to another entry and its pIC50.
Form field: reported pIC50 of Cc1cc(C(=O)N2CCC[C@@]2(C)c2nc3c(C)c(Cl)ccc3[nH]2)c(-n2nccn2)cn1 [Ex. 5.263] 6.52

* * *

- assay-system: human orexin-2 receptor (Homo sapiens (Human), UniProt O43614)
- protocol: In vitro assay: intracellular calcium measurements (FLIPR), antagonistic activity
- settings: CHO cells expressing human orexin-2 receptor, orexin-A agonist, geometric mean, read-out: IC50 Ox2
Threshold check on IC50: strictly below 100 nM is satisfied; on or above 100 nM is not satisfied.

These solved cases illustrate the format of a correct answer.
{"smiles-str": "Cc1ccc(-n2nccn2)c(C(=O)N2CCC[C@@]2(C)c2nc3cc(C(F)(F)F)c(Cl)cc3[nH]2)c1F", "assigned-class": "satisfied"}
{"smiles-str": "C=C1C[C@@H](c2nc3cc(OC)ccc3[nH]2)N(C(=O)c2nc(C)sc2-c2cccc(F)c2)C1", "assigned-class": "satisfied"}
{"smiles-str": "COc1cc2nc([C@@H]3[C@@H](C)CCN3C(=O)c3cc(C(F)(F)F)ccc3-n3nccn3)[nH]c2cc1OC", "assigned-class": "not satisfied"}

IC50 strictly < 100 nM for this compound? COc1ccc(-c2sc(C)nc2C(=O)N2CCC[C@@]2(C)c2nc3cc(OC)c(OC)cc3[nH]2)cn1 not satisfied

IC50 strictly < 100 nM for this compound? COc1cccc(-c2ccc(C)cc2C(=O)N2CCC[C@@]2(C)c2nc3cc(C(F)(F)F)ccc3[nH]2)c1 not satisfied

IC50 strictly < 100 nM for this compound? COc1cc(C(=O)N2CCC[C@@]2(C)c2nc3c(C)c(Cl)ccc3[nH]2)c(-n2nccn2)cc1OC satisfied

IC50 strictly < 100 nM for this compound? Cc1ccc(-c2ccccc2)c(C(=O)N2CCC[C@@]2(C)c2nc3cc(OC(F)(F)F)ccc3[nH]2)c1 not satisfied

IC50 strictly < 100 nM for this compound? Cc1nc(C(=O)N2CCC[C@@]2(C)c2nc3c(C)c(C)c(Br)cc3[nH]2)c(-c2cc(F)cc(F)c2)s1 satisfied

IC50 strictly < 100 nM for this compound? Cc1nc(C(=O)N2CCC[C@@]2(C)c2nc3c(C)c(Cl)ccc3n2C)c(-c2cccc(Cl)c2)s1 satisfied

IC50 strictly < 100 nM for this compound? Cc1cc2[nH]c([C@@H]3[C@@H](C)CCN3C(=O)c3cc(F)ccc3-c3ccccn3)nc2cc1Cl not satisfied

IC50 strictly < 100 nM for this compound? CSc1cccc2nc([C@@H]3CCCN3C(=O)c3cncnc3-c3cc(Cl)cc(Cl)c3)[nH]c12 not satisfied

IC50 strictly < 100 nM for this compound? Cc1nc(C(=O)N2CCC[C@H]2c2nc3c(O)cccc3[nH]2)c(-c2cccc(Cl)c2)s1 not satisfied

IC50 strictly < 100 nM for this compound? Cc1ccc(-n2nccn2)c(C(=O)N2CCC[C@@]2(C)c2nc3cc(C(F)(F)F)ccc3[nH]2)c1 satisfied
